System: Msh3
ASSAY PROCEDURE: Yeast two hybrid (Y2H) analysis of PCNA-partner interaction
Format: binding
Parameters: key: ++: major increase in growth; +: moderate increase in growth; similar growth as the WT PCNA-expressing cells; -: minor decrease in growth; --: moderate decrease in growth; ---: major decrease in growth
COND: spotting onto selective agar plates; PCNA fused to AD, partner to BD
REPORTED METRIC: Y2H growth relative to WT PCNA-expressing strain: Msh3

pol30-Pol32E9 (protein, left off: Gal4 activation domain, end not stated, kept) MLEAKFEEASLFKRIIDGFKDCVQLVNFQCKEDGIIAQAVDDSRVLLVSLEIGVEAFQEYRCDHPVTLGMDLTSLSKILRCGNNTDTLTLIADNTPDSIILLFEDTKKDRIAEYSLKLMDNDVDSLKIIELQYDSTLSLPSSEFSKIVRDLSQLSDSINIMITKETIKFVADGDIGSGSVIIKPFVDMEHPETSIKLEMDQPVDLTFGAKYLLDIIKGSSLSDRVGIRLSSEAPALFQFDLKSGFLQFFLAPKFNDEE = WT
pol30-Rad27E31: PCNA mutant evolved for Rad27, IDCL sequence DGDYDVLKIREL (protein, left off: Gal4 activation domain, end not stated, kept) MLEAKFEEASLFKRIIDGFKDCVQLVNFQCKEDGIIAQAVDDSRVLLVSLEIGVEAFQEYRCDHPVTLGMDLTSLSKILRCGNNTDTLTLIADNTPDSIILLFEDTKKDRIAEYSLKLMDGDYDVLKIRELQYDSTLSLPSSEFSKIVRDLSQLSDSINIMITKETIKFVADGDIGSGSVIIKPFVDMEHPETSIKLEMDQPVDLTFGAKYLLDIIKGSSLSDRVGIRLSSEAPALFQFDLKSGFLQFFLAPKFNDEE = WT
pol30-Msh6E6: PCNA mutant evolved for Msh6, IDCL sequence DYDKDLLKIIEL (protein, left off: Gal4 activation domain, end not stated, kept) MLEAKFEEASLFKRIIDGFKDCVQLVNFQCKEDGIIAQAVDDSRVLLVSLEIGVEAFQEYRCDHPVTLGMDLTSLSKILRCGNNTDTLTLIADNTPDSIILLFEDTKKDRIAEYSLKLMDYDKDLLKIIELQYDSTLSLPSSEFSKIVRDLSQLSDSINIMITKETIKFVADGDIGSGSVIIKPFVDMEHPETSIKLEMDQPVDLTFGAKYLLDIIKGSSLSDRVGIRLSSEAPALFQFDLKSGFLQFFLAPKFNDEE = ++
pol30-Rad30E9: PCNA mutant evolved for Rad30, IDCL sequence DNDWDFLKIDEL (protein, left off: Gal4 activation domain, end not stated, kept) MLEAKFEEASLFKRIIDGFKDCVQLVNFQCKEDGIIAQAVDDSRVLLVSLEIGVEAFQEYRCDHPVTLGMDLTSLSKILRCGNNTDTLTLIADNTPDSIILLFEDTKKDRIAEYSLKLMDNDWDFLKIDELQYDSTLSLPSSEFSKIVRDLSQLSDSINIMITKETIKFVADGDIGSGSVIIKPFVDMEHPETSIKLEMDQPVDLTFGAKYLLDIIKGSSLSDRVGIRLSSEAPALFQFDLKSGFLQFFLAPKFNDEE = WT
